# SUBJECT_OF_TEST: GalNAc(b1-6)GalNAc
# EXPERIMENT_SUMMARY: glycan array binding signal (z-score within array); higher = stronger binding
# RECORDED_CONDITIONS: glycan notation: IUPAC condensed, linker removed
About 410 targets per protein were measured; listed, in parts, are those with the strongest signals and a random draw of the rest.

BINDER	glycan array binding signal (z-score)
ASAL (Allium sativum), P83886 (protein) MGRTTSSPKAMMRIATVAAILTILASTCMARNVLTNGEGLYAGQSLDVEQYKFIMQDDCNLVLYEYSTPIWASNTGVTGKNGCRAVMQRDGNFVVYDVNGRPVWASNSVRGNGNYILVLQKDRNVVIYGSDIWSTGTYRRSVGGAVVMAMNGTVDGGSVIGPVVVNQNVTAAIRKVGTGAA	-0.24
Clec12b (Mus musculus), Q149M0 (protein) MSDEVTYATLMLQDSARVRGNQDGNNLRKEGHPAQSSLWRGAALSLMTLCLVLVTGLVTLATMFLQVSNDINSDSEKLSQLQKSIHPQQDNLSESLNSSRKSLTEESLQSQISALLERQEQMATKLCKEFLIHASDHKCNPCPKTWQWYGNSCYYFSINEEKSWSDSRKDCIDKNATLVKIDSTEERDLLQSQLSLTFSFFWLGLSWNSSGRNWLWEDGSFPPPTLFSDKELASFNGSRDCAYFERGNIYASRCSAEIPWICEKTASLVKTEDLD	1.14
Nc3LysM-2 (protein) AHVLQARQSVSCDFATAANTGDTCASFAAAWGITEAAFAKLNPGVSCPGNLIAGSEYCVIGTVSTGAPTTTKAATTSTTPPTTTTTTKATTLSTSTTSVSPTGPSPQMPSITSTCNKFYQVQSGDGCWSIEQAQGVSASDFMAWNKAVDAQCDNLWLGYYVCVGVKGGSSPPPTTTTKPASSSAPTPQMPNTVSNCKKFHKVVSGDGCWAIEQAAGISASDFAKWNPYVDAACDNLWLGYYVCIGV	0.877
MGL1 (Mus musculus), P49300 (protein) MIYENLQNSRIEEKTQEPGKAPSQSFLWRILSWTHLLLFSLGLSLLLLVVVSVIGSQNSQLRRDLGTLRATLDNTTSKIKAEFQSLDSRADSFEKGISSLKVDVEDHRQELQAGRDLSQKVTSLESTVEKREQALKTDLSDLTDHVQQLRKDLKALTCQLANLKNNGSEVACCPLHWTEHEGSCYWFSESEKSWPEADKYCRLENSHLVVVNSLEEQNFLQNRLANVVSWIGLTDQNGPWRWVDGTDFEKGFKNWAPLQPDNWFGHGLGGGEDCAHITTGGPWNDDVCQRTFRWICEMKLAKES	-0.374

The measured values listed here are drawn from the supplement of paper PMC8728848.
